Just for reference, the supplement of paper PMC7877785 is where these values come from.

# procedure_summary: self-splicing fitness, log relative to wild type (ln ratio); higher = more splicing; Tetrahymena group I intron in knt gene, E. coli kanamycin selection, DiMSum; sequences stand for … in CUCUCU…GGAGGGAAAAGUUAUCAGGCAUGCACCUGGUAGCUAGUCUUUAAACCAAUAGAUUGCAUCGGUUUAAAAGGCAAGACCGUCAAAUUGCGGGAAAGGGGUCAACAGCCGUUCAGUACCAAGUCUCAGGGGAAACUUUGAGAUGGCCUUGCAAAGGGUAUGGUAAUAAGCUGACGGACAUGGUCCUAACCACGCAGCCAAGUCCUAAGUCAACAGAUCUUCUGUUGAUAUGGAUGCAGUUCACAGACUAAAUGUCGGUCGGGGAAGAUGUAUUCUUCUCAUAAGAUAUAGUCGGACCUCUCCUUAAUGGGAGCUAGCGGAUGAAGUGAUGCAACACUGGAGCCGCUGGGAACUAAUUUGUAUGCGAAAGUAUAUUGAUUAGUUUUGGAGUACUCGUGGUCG;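 further: selection with 25 µg/mL kanamycin versus none on LB agar overnight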
# cond: 37 °C
parameter: self-splicing fitness (ln)
Form rule: numeric answer, no unit written next to it.

Recorded results for 5 sequences are shown here.
GACAAGCAAUAUUACGGGAC: -1.02
GGGAAGCAAUAUUACGGCAC: -0.976
GAAUAGCAAUAUUACGCCAG: -1.69
AACAAGCAAUAUUACGCACG: -0.33
GCCCAGCAAUAUUACGGAAC: -0.0936

Query CCUUAGCAAUAUUACGACGG yields self-splicing fitness (ln) of -2.95

Query UGCCAGCAAUAUUACGGAAG yields self-splicing fitness (ln) of -1.42

Query UGUCAGCAAUAUUACGACAG yields self-splicing fitness (ln) of -0.615

Query GACUAGCAAUAUUACGUCCA yields self-splicing fitness (ln) of -1.47

Query AUAGAGCAAUAUUACGACGU yields self-splicing fitness (ln) of 0.556

Query AUUGAGCAAUAUUACGUCAU yields self-splicing fitness (ln) of -2.12

Query UUAGAGCAAUAUUACGAUCU yields self-splicing fitness (ln) of -3.11

Query UGAUAGCAAUAUUACGGAAG yields self-splicing fitness (ln) of -1.64

Query GCACAGCAAUAUUACGACCA yields self-splicing fitness (ln) of -0.554

Query AUCCAGCAAUAUUACGAAAC yields self-splicing fitness (ln) of -1.47

Query CAAAAGCAAUAUUACGCUGU yields self-splicing fitness (ln) of -1.73

Query AACAAGCAAUAUUACGCCUG yields self-splicing fitness (ln) of -0.0232

---

Measured self-splicing fitness (ln) of individual entries
# procedure_summary: self-splicing fitness, log relative to wild type (ln ratio); higher = more splicing; Tetrahymena group I intron in knt gene, E. coli kanamycin selection, DiMSum; sequences stand for … in CUCUCU…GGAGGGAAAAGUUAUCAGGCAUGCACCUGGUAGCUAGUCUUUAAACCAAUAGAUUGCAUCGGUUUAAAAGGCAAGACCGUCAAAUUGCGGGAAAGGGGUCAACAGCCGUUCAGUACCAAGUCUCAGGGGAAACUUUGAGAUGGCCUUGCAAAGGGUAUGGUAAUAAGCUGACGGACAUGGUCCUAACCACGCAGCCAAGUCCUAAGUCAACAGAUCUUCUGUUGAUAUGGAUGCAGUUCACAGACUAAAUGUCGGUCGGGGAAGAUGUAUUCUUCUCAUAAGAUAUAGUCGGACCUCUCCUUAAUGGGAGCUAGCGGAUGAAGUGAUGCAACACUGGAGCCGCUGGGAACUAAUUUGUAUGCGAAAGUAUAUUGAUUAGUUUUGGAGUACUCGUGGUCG
# cond: 37 °C
Form rule: numeric answer, no unit written next to it.

Recorded results for 5 sequences are shown here.
UAACAGCAAUAUUACGUAUC: -2.43
AGCAAGCAAUAUUACGGUCU: 0.0318
AUUCAGCAAUAUUACGGACG: -0.168
CGCCAGCAAUAUUACGGGCU: -2.04
ACUGAGCAAUAUUACGUAGG: -1.27

Query ACCGAGCAAUAUUACGGGCC yields self-splicing fitness (ln) of -2.09
